System: 171881-019-R-J1-PDC complex spheroid growth, % test/control
Experiment: Anticancer human tumor 171881-019-R-J1-PDC patient-derived invasive breast carcinoma cell line growth inhibition [Asc]
Details: second compound 0.03 µM; first compound 10 µM; hits give low values
assay-metric: viability, T/C (%)

molecule	target-system	result-value
C#Cc1c(F)ccc2cc(O)cc(-c3ncc4c(N5CC6CCC(C5)N6)nc(OCC56CCCN5CC(F)C6)nc4c3F)c12 (centres undefined) + CCN1C(C(=O)NC23CCC(C(=O)O)(CC2)CC3)C(c2cccc(Cl)c2F)C2(C(=O)Nc3cc(Cl)ccc32)C12CCCCC2	171881-019-R-J1-PDC complex spheroid growth, % test/control	170
C=CC(=O)N1CCN(c2nc(=O)n(-c3c(C)ccnc3C(C)C)c3nc(-c4c(O)cccc4F)c(F)cc23)C(C)C1 (centres undefined) + CCN1C(C(=O)NC23CCC(C(=O)O)(CC2)CC3)C(c2cccc(Cl)c2F)C2(C(=O)Nc3cc(Cl)ccc32)C12CCCCC2	171881-019-R-J1-PDC complex spheroid growth, % test/control	103
O=C(c1cc(Cc2n[nH]c(=O)c3ccccc23)ccc1F)N1CCN(C(=O)C2CC2)CC1 + CCN1C(C(=O)NC23CCC(C(=O)O)(CC2)CC3)C(c2cccc(Cl)c2F)C2(C(=O)Nc3cc(Cl)ccc32)C12CCCCC2	171881-019-R-J1-PDC complex spheroid growth, % test/control	103
C=C(F)C(=O)N1CCN(c2nc(OCC3CCCN3C)nc3c2CCN(c2cccc4cccc(Cl)c24)C3)CC1CC#N (centres undefined) + CCN1C(C(=O)NC23CCC(C(=O)O)(CC2)CC3)C(c2cccc(Cl)c2F)C2(C(=O)Nc3cc(Cl)ccc32)C12CCCCC2	171881-019-R-J1-PDC complex spheroid growth, % test/control	1.23

----------
System: 171881-019-R-J1-PDC complex spheroid growth, % test/control
Test: Anticancer human tumor 171881-019-R-J1-PDC cell line growth inhibition [Asc];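 note: spheroids exposed to compounds for 7 days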
Settings: second compound 1 µM; first compound 0.316 µM; hits give low values

molecule	target-system	units	viability, T/C
C=C(F)C(=O)N1CCN(c2nc(OCC3CCCN3C)nc3c2CCN(c2cccc4cccc(Cl)c24)C3)CC1CC#N (stereo not drawn) + Cc1c(S(C)(=O)=O)c(-c2cc(F)cc(N3CCN(c4ccc(NS(=O)(=O)c5ccc(NC(CCN6CCC(C(=O)OCCCP(=O)(O)O)CC6)CSc6ccccc6)c(S(=O)(=O)C(F)(F)F)c5)cc4)CC3)c2)c(-c2ccc(Cl)cc2)n1C(C)C	171881-019-R-J1-PDC complex spheroid growth, % test/control	%	133
CCN1CCN(Cc2ccc(Nc3ncc(F)c(-c4cc(F)c5nc(C)n(C(C)C)c5c4)n3)nc2)CC1 + Cc1c(S(C)(=O)=O)c(-c2cc(F)cc(N3CCN(c4ccc(NS(=O)(=O)c5ccc(NC(CCN6CCC(C(=O)OCCCP(=O)(O)O)CC6)CSc6ccccc6)c(S(=O)(=O)C(F)(F)F)c5)cc4)CC3)c2)c(-c2ccc(Cl)cc2)n1C(C)C	171881-019-R-J1-PDC complex spheroid growth, % test/control	%	188
O=C(c1ccc(F)c(F)c1Nc1ccc(I)cc1F)N1CC(O)([C@@H]2CCCCN2)C1 + CNC(C)C(=O)NC1CN(S(=O)(=O)c2cccc(S(=O)(=O)N3CCC4CCC(C(=O)NC(c5ccccc5)c5ccccc5)N4C(=O)C(NC(=O)C(C)NC)C3)c2)CCC2CCC(C(=O)NC(c3ccccc3)c3ccccc3)N2C1=O	171881-019-R-J1-PDC complex spheroid growth, % test/control	%	58.1

Origin of values: PubChem BioAssay AID1963428
